molecular target: recombinant N-terminal GST-tagged human Rho kinase 1 (ROCK1, amino acids 1-535) (Homo sapiens); construct: ROCK1, amino acids 1-535; purchased Invitrogen Inc. PV-3691; assay: In vitro Rho kinase assay (luciferase-based ATP consumption), ROCK1; format: biochemical; settings: ROCK1 IC50, recombinant GST-tagged human ROCK1, luciferase-based ATP consumption
Sequence (Q13464 1-535): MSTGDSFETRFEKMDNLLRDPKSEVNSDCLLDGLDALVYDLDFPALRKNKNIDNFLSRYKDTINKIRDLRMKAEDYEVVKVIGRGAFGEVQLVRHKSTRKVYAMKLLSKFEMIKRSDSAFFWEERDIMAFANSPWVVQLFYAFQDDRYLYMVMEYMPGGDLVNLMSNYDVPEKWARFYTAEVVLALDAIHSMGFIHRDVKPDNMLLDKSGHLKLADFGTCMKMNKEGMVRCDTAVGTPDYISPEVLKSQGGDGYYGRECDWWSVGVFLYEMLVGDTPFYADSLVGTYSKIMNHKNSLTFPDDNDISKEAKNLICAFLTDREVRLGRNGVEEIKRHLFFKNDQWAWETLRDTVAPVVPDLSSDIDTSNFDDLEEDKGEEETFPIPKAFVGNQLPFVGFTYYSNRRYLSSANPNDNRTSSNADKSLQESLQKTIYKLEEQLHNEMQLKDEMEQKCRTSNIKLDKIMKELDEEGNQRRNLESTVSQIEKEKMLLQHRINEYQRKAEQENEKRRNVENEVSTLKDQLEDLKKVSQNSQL
Measured IC50, listed per entry for reference.
measured parameter: IC50

In [3]: df
Out[3]:
                                    compound  obs_value
 0  Cc1c(-c2ccnc(N)n2)sc2ccc(CNC(=O)c3ccccc3Cl)cc12 [Example 147]     > 5 µM
 1  Cc1c(-c2ccnc(N)n2)sc2ccc(CNC(=O)c3cc([N+](=O)[O-])ccc3Cl)cc12 [Example 265]     > 5 µM
 2  Cc1c(-c2ccnc(N)n2)sc2ccc(CNC(=O)c3cc(F)c(F)cc3Cl)cc12 [Example 252]     < 5 µM
 3  Cc1c(-c2ccnc(N)n2)sc2ccc(CNC(=O)c3cccc(Cl)c3Cl)cc12 [Example 245]     > 5 µM
 4  Cc1c(-c2ccnc(N)n2)sc2ccc(CNC(=O)c3cccnc3Cl)cc12 [Example 149]     > 5 µM
 5  Cc1c(-c2ccnc(N)n2)sc2ccc(CNC(=O)c3c(Cl)cc(Cl)cc3Cl)cc12 [Example 300]     > 5 µM
 6  Cc1c(-c2ccnc(N)n2)sc2ccc(CNC(=O)c3c(F)cccc3Cl)cc12 [Example 195]     < 5 µM
 7  Cc1c(-c2ccnc(N)n2)sc2ccc(CNC(=O)c3ccc(F)cc3Cl)cc12 [Example 194]     > 5 µM
 8  Cc1c(-c2ccnc(N)n2)sc2ccc(CNC(=O)c3cc(Br)ccc3Cl)cc12 [Example 314]     < 5 µM
 9  Cc1c(-c2ccnc(N)n2)sc2ccc(CNC(=O)c3ccc(Cl)cc3Cl)cc12 [Example 246]     < 5 µM
10  Cc1c(-c2ccnc(N)n2)sc2ccc(CNC(=O)c3ccncc3Cl)cc12 [Example 152]     < 5 µM
11  Cc1c(-c2ccnc(N)n2)sc2ccc(CNC(=O)c3ccc([N+](=O)[O-])cc3Cl)cc12 [Example 266]     > 5 µM
12  Cc1c(-c2ccnc(N)n2)sc2ccc(CNC(=O)C=Cc3ccccc3Cl)cc12 [Example 225]     > 5 µM
13  Cc1c(-c2ccnc(N)n2)sc2ccc(CNC(=O)c3cc(Cl)ccc3Cl)cc12 [Example 247]     < 5 µM
